Field: %Inh. Provide a value for each of the compounds that follow.
- System: TTK
- measurement.conditions: concentration: 1 μM, replicates: in singlicate; n = 1;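 note: KINOMEscan kinase panel screen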
The reply should be a number in %, with the unit left off.

# input Hello, I am looking for reported %Inh with TTK for Cl.c1ccc(-c2ccc3c(Nc4ccc5[nH]ccc5c4)ccnc3c2)nc1 . Could you help?
# output 0

# input Hello, I am looking for reported %Inh with TTK for COc1ccc(CNC(=O)NC2CCN(c3ccnc(Nc4ccc(F)cc4)n3)CC2)cc1 . Could you help?
# output 0

# input Hello, I am looking for reported %Inh with TTK for Cl.c1ccc(-c2ccc3c(Nc4ccc5[nH]ncc5c4)ccnc3c2)nc1 . Could you help?
# output 3

# input Hello, I am looking for reported %Inh with TTK for COc1cc(Nc2nccc(-c3c(-c4cccc(NC(=O)c5c(F)cccc5F)c4)nn4ccccc34)n2)cc(OC)c1OC . Could you help?
# output 10

# input Hello, I am looking for reported %Inh with TTK for COc1cc(Nc2ncc3c(C)nc(-c4cc5ccccc5[nH]4)n3n2)cc(OC)c1OC . Could you help?
# output 36

# input Hello, I am looking for reported %Inh with TTK for Nc1n[nH]c2cnc(-c3ccccc3)cc12 . Could you help?
# output 0

# input Hello, I am looking for reported %Inh with TTK for COc1cc(Nc2nccc(N3CCC(NC(=O)Nc4cccc(C(C)=O)c4)C3)n2)cc(OC)c1OC (centres unmarked) . Could you help?
# output 21

# input Hello, I am looking for reported %Inh with TTK for O=C(Nc1cccc(-c2nn3ncccc3c2-c2ccnc(Nc3ccccc3)n2)c1)c1c(F)cccc1F . Could you help?
# output 7

# input Hello, I am looking for reported %Inh with TTK for Cc1ccc(C)c(NC(=O)NC2CCN(c3ccnc(Nc4ccc(F)cc4)n3)C2)c1 (centres unmarked) . Could you help?
# output 13

# input Hello, I am looking for reported %Inh with TTK for CN1CCN(CCCNc2nccc(-c3c(-c4ccc(F)cc4)nn4cc(C(F)(F)F)ccc34)n2)CC1 . Could you help?
# output 0

# input Hello, I am looking for reported %Inh with TTK for Cc1cccc(Nc2nc(N[C@H]3CCNC3)ncc2C(N)=O)c1.Cl . Could you help?
# output 29

# input Hello, I am looking for reported %Inh with TTK for COc1cc(Nc2nccc(N3CCC(NC(=O)c4cc5ccccc5s4)C3)n2)cc(OC)c1OC (centres unmarked) . Could you help?
# output 0

# input Hello, I am looking for reported %Inh with TTK for COc1ccc(-c2coc3ccc(-c4nnc(SCc5ccc(OC)c(C(F)(F)F)c5)o4)cc23)cc1 . Could you help?
# output 1

# input Hello, I am looking for reported %Inh with TTK for Cn1cc(-c2[nH]c3cc(NC(=O)[C@H](N)C4CCCCC4)cc4c3c2C=NNC4=O)cn1 . Could you help?
# output 0

# input Hello, I am looking for reported %Inh with TTK for CCc1ccc(-c2ccc3c(c2)-c2c(cnn2C)S(=O)(=O)N3C)cc1 . Could you help?
# output 0

# input Hello, I am looking for reported %Inh with TTK for CN1CCN(Cc2cccc(-c3ccc4c(Nc5ccc(Oc6ccccc6)cc5)ccnc4c3)c2)CC1 . Could you help?
# output 0

# input Hello, I am looking for reported %Inh with TTK for COc1cc(Nc2nccc(-c3c(-c4cccc(NC(=O)c5c(F)cccc5F)c4)nn4ncccc34)n2)cc(OC)c1OC . Could you help?
# output 10

# input Hello, I am looking for reported %Inh with TTK for CC(=O)Nc1nc2cnc(Nc3cc(NC(=O)c4cccc(C5(C#N)CC5)c4Cl)ccc3C)nc2s1 . Could you help?
# output 21

# input Hello, I am looking for reported %Inh with TTK for CCS(=O)(=O)c1ccc(OC)c(Nc2nccc(-c3c(-c4cccc(NC(=O)c5c(F)cccc5F)c4)nn4ncccc34)n2)c1 . Could you help?
# output 0

# input Hello, I am looking for reported %Inh with TTK for O=C(Nc1n[nH]c2cc(-c3ccoc3)ccc12)C1CC1 . Could you help?
# output 0

# input Hello, I am looking for reported %Inh with TTK for Nc1ncc(-c2cccnc2)c2scc(-c3ccc4c(c3)CCN4C(=O)Cc3ccccc3)c12 . Could you help?
# output 0

# input Hello, I am looking for reported %Inh with TTK for CCCCc1nn2ncccc2c1-c1ccnc(Nc2ccc(N3CCN(C)CC3)cc2)n1 . Could you help?
# output 50

# input Hello, I am looking for reported %Inh with TTK for O=C(Nc1cccc(Oc2ccc3nc(NC(=O)C4CC4)cn3n2)c1)c1ccccc1C(F)(F)F . Could you help?
# output 26

# input Hello, I am looking for reported %Inh with TTK for O=C(O)C(F)(F)F.O=C(O)C(F)(F)F.O=c1[nH]ccc2nc(N[C@@H]3CCCNC3)nc(Nc3ccc(S(=O)(=O)N4CCOCC4)cc3)c12 . Could you help?
# output 96.8

# input Hello, I am looking for reported %Inh with TTK for CN(C)S(=O)(=O)c1cc(-c2ccc3nccc(-c4cccc(S(N)(=O)=O)c4)c3c2)cnc1N . Could you help?
# output 47

# input Hello, I am looking for reported %Inh with TTK for Cc1cccc(NC(=O)Nc2ccc(Oc3ncnc4ccn(C)c34)cc2)c1 . Could you help?
# output 0

# input Hello, I am looking for reported %Inh with TTK for CC(C)c1nc(-c2cccc(NS(=O)(=O)c3c(F)cccc3F)c2F)c(-c2ccnc(Nc3ccc(N4CCOCC4)nc3)n2)s1 . Could you help?
# output 82

# input Hello, I am looking for reported %Inh with TTK for CN(c1ccc(NC(=O)Nc2cc(C(F)(F)F)ccc2F)cc1)c1ccnc(Nc2ccc(S(N)(=O)=O)cc2)n1 . Could you help?
# output 22

# input Hello, I am looking for reported %Inh with TTK for COc1cccc(C(=O)Nc2cccc(Oc3ccc4nc(NC(=O)C5CC5)cn4n3)c2)c1 . Could you help?
# output 13

# input Hello, I am looking for reported %Inh with TTK for COC(=O)Nc1nc2cc(Oc3ccc(NC(=O)Nc4cc(C(F)(F)F)ccc4F)cn3)ccc2[nH]1.Cl.Cl . Could you help?
# output 43

# input Hello, I am looking for reported %Inh with TTK for O=C(Nc1cccc(-c2nn3ccccc3c2-c2ccnc(Nc3cccc(F)c3)n2)c1)c1c(F)ccc(F)c1Cl . Could you help?
# output 28

# input Hello, I am looking for reported %Inh with TTK for O=C(Nc1n[nH]c2nc(-c3ccc(O)cc3)ccc12)C1CC1 . Could you help?
# output 0

* * *

- Tested on: PKN1
- measurement.conditions: concentration: 1 μM, replicates: in singlicate; n = 1
Field: %Inh. Provide a value for each of the compounds that follow.
The reply should be a number in %, with the unit left off.

# input GET /values?readout=%Inh&item= COC(=O)Nc1nc2cc(Oc3ccc(NC(=O)Nc4cc(C(F)(F)F)ccc4F)cn3)ccc2[nH]1.Cl.Cl
# output 15

# input GET /values?readout=%Inh&item= COc1cccc(C(=O)Nc2cccc(Oc3ccc4nc(NC(=O)C5CC5)cn4n3)c2)c1
# output 0

# input GET /values?readout=%Inh&item= CN(C)S(=O)(=O)c1cc(-c2ccc3nccc(-c4cccc(S(N)(=O)=O)c4)c3c2)cnc1N
# output 57

# input GET /values?readout=%Inh&item= O=C(Nc1n[nH]c2nc(-c3ccc(O)cc3)ccc12)C1CC1
# output 19

# input GET /values?readout=%Inh&item= Cc1ccc(C(=O)N2CC[C@@H](O)C2)cc1-n1c(C)cc(OCc2ccc(F)cc2F)c(Br)c1=O
# output 16

# input GET /values?readout=%Inh&item= CNC(=O)c1ccccc1Nc1nc(Nc2ccc(N3CCOCC3)cc2)ncc1Cl.Cl
# output 55

# input GET /values?readout=%Inh&item= Cc1ccc(F)c(C(=O)Nc2cccc(-c3nn4ccccc4c3-c3ccnc(Nc4cccc(F)c4)n3)c2)c1F
# output 0

# input GET /values?readout=%Inh&item= COCCOCCOc1cc2ncc3c4ccc(C#N)cc4[nH]c3c2cc1OC
# output 17

* * *

- Tested on: MELK
- measurement.conditions: concentration: 1 μM, replicates: in singlicate; n = 1
endpoint.name: %Inh

# input GET /values?readout=%Inh&item= O=C(Nc1n[nH]c2cc(-c3ccoc3)ccc12)C1CC1 [SB-738481]
# output 0%

# input GET /values?readout=%Inh&item= CN1CCN(Cc2cccc(-c3ccc4c(Nc5ccc(Oc6ccccc6)cc5)ccnc4c3)c2)CC1 [GW578342]
# output 16%

# input GET /values?readout=%Inh&item= Nc1ncc(-c2cccnc2)c2scc(-c3ccc4c(c3)CCN4C(=O)Cc3ccccc3)c12 [GSK683281]
# output 100%

# input GET /values?readout=%Inh&item= Cc1occc1-c1ncc(OC[C@@H](N)Cc2c[nH]c3ccccc23)cc1-c1ccc2[nH]nc(C)c2c1.O=C(O)C(F)(F)F [GSK682037]
# output 50%

# input GET /values?readout=%Inh&item= C[C@@H]1CC[C@@H](C(=O)Nc2ccccc2)CN1c1cc(-c2ccc3c(N)n[nH]c3c2)nc(N)n1 [GSK2286062]
# output 31%

# input GET /values?readout=%Inh&item= CN(C)Cc1ccc(-c2ccc3c(Nc4ccc(Oc5ccccn5)cc4)ccnc3c2)o1 [GW567148]
# output 0%

# input GET /values?readout=%Inh&item= CSc1cccc2c(-c3ccncn3)c(-c3ccc(F)cc3)nn12 [GW514786]
# output 20%

# input GET /values?readout=%Inh&item= CNC(=O)c1ccccc1Nc1nc(Nc2ccc(N3CCOCC3)cc2)ncc1Cl.Cl [GSK1576028]
# output 99.8%

# input GET /values?readout=%Inh&item= COc1cc(Nc2nccc(-c3c(-c4cccc(NC(=O)c5c(F)cccc5F)c4)nn4ccccc34)n2)cc(OC)c1OC [GSK323521]
# output 3%

# input GET /values?readout=%Inh&item= Nc1ncnc2c1nc(-c1ccccc1)n2-c1ccccc1 [SKF-97293]
# output 0%

# input GET /values?readout=%Inh&item= Cc1ccc(C)c(NC(=O)NC2CCN(c3ccnc(Nc4ccc(F)cc4)n3)C2)c1 (centres unmarked) [GSK1379720]
# output 0%

# input GET /values?readout=%Inh&item= O=C(NC1CCN(c2ccnc(Nc3ccc(F)cc3)n2)C1)c1cc2ccccc2s1 (centres unmarked) [GSK1379716]
# output 0%

# input GET /values?readout=%Inh&item= COCCOCCOc1cc2ncc3c4ccc(C#N)cc4[nH]c3c2cc1OC
# output 54%

# input GET /values?readout=%Inh&item= c1ccc(Oc2ccc(Nc3ccnc4cc(-c5ccc(CNCCN6CCOCC6)o5)ccc34)cc2)nc1 [GW567145]
# output 0%

# input GET /values?readout=%Inh&item= O=C(Nc1ccccc1F)NC1CCN(c2ccnc(Nc3ccc(F)cc3)n2)CC1 [GSK1379800]
# output 15%

# input GET /values?readout=%Inh&item= c1ccc(-c2n[nH]cc2Nc2ccnc3ccccc23)nc1 [GW694077]
# output 21%

# input GET /values?readout=%Inh&item= Oc1cc(Nc2ccnc3cc(I)ccc23)ccc1F [GW552771]
# output 0%

Sourced from paper PMC5540273
